Molecular target: BuChE (from equine serum) (Equus caballus, UniProt P81908)
Construct: purchased Merck & Co; host or cells: equine serum
Sequence (P81908 whole entry): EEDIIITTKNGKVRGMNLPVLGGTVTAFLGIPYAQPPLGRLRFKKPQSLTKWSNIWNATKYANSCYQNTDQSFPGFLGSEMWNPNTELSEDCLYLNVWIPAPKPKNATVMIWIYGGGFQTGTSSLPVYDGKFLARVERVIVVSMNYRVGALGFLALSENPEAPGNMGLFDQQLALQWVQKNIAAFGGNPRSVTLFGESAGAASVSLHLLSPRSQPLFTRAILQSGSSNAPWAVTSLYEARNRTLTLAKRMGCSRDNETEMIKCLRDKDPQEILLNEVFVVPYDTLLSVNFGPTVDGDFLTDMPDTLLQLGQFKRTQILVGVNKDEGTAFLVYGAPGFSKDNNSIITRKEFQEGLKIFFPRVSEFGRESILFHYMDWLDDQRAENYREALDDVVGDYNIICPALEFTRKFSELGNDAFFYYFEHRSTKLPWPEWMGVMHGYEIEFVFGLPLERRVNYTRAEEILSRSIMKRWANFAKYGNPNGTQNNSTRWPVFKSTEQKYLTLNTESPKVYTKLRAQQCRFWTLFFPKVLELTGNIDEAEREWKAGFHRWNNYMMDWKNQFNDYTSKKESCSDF
Assay: biochemical
Conditions: mean ± SEM
Description: Photometric 96-well microplates made from polystyrene (Thermo Scientific, Waltham, […]. USA) were used for measurement purposes. AChE and BuChE inhibitory activities were measured by the spectrophotometric method of Ellman, with slight modification. […] The activity was determined by measuring the increase in absorbance at 410 nm at 1 min intervals at 37 °C. The data were calculated according to the method described by Ellman et al. Each concentration was assayed in triplicate. […]
pIC50: −log10 of the molar value.

{"line-notation": "COc1cc(OC)cc(C(=O)OCCCOC(=O)c2nc(C)c(C)nc2C)c1", "assayed-target": "BuChE (from equine serum) (Equus caballus, UniProt P81908)", "pIC50": 2.25}
{"line-notation": "Cc1nc(C)c(C(=O)OCCCOC(=O)c2ccc(Br)cc2)nc1C", "assayed-target": "BuChE (from equine serum) (Equus caballus, UniProt P81908)", "pIC50": 2.60}
{"line-notation": "Cc1nc(C)c(C(=O)OCCCOC(=O)c2ccccn2)nc1C", "assayed-target": "BuChE (from equine serum) (Equus caballus, UniProt P81908)", "pIC50": 2.48}
{"line-notation": "COc1ccc(CC(=O)OCCCOC(=O)c2nc(C)c(C)nc2C)cc1F", "assayed-target": "BuChE (from equine serum) (Equus caballus, UniProt P81908)", "pIC50": 2.51}
{"line-notation": "COc1ccc(C(=O)OCCCOC(=O)c2nc(C)c(C)nc2C)cc1OC", "assayed-target": "BuChE (from equine serum) (Equus caballus, UniProt P81908)", "pIC50": 2.37}
